Data credit: ChEMBL document CHEMBL1821679

# study-system: Heat shock protein HSP90 (Homo sapiens) (UniProt P07900+P08238)
# assay-overview: Inhibition of Hsp90 in human MCF7 cells assessed as induction of Akt degradation at 0.5 fold IC50 after 24 hrs by Western blot method
# Assay type: cell-based
Calls of active or inactive are those of the source. The calls are words filed in the database; no cut-off is given here.
Write down one outcome, taken from active, inactive

The following compounds have reported results that may help.
COc1ccc(C(=O)Nc2cc3ccc(O[C@@H]4OC(C)(C)[C@H](OC)[C@@H](O)[C@H]4O)c(C)c3oc2=O)cc1-c1cc(C(=O)Nc2cc3ccc(O[C@@H]4OC(C)(C)[C@H](OC)[C@@H](O)[C@H]4O)c(C)c3oc2=O)ccc1OC active
COc1ccc(C(=O)Nc2cc3ccc(O[C@@H]4OC(C)(C)[C@H](OC)[C@@H](O)[C@H]4O)c(OC)c3oc2=O)cc1-c1cc(C(=O)Nc2cc3ccc(O[C@@H]4OC(C)(C)[C@H](OC)[C@@H](O)[C@H]4O)c(OC)c3oc2=O)ccc1OC active

Test call for this compound, please: Cc1c(OC2CCN(C)CC2)ccc2cc(NC(=O)CC/C=C/CCC(=O)Nc3cc4ccc(OC5CCN(C)CC5)c(C)c4oc3=O)c(=O)oc12
active

Test call for this compound, please: COc1c(OC2CCN(C)CC2)ccc2cc(NC(=O)CC/C=C/CCC(=O)Nc3cc4ccc(OC5CCN(C)CC5)c(OC)c4oc3=O)c(=O)oc12
inactive

Test call for this compound, please: COc1cc2cc(NC(=O)CC/C=C/CCC(=O)Nc3cc4cc(OC)c(OC5CCN(C)CC5)c(C)c4oc3=O)c(=O)oc2c(C)c1OC1CCN(C)CC1
active

Test call for this compound, please: COc1c(OC2CCN(C)CC2)ccc2cc(NC(=O)CCC/C=C/CCCC(=O)Nc3cc4ccc(OC5CCN(C)CC5)c(OC)c4oc3=O)c(=O)oc12
active

Test call for this compound, please: Cc1c(OC2CCN(C)CC2)ccc2cc(NC(=O)C/C=C/CC(=O)Nc3cc4ccc(OC5CCN(C)CC5)c(C)c4oc3=O)c(=O)oc12
active

Test call for this compound, please: COc1ccc(C(=O)Nc2cc3cc(OC)c(O[C@@H]4OC(C)(C)[C@H](OC)[C@@H](O)[C@H]4O)c(C)c3oc2=O)cc1-c1cc(C(=O)Nc2cc3cc(OC)c(O[C@@H]4OC(C)(C)[C@H](OC)[C@@H](O)[C@H]4O)c(C)c3oc2=O)ccc1OC
active

Test call for this compound, please: COc1cc2cc(NC(=O)CCC/C=C/CCCC(=O)Nc3cc4cc(OC)c(OC5CCN(C)CC5)c(C)c4oc3=O)c(=O)oc2c(C)c1OC1CCN(C)CC1
active

---

# study-system: Heat shock protein HSP90 (Homo sapiens) (UniProt P07900+P08238)
# assay-overview: Inhibition of Hsp90 in human MCF7 cells assessed as induction of Her2 degradation at 0.5 fold IC50 after 24 hrs by Western blot method
# Type: cell-based
Activity calls are given as the source filed them. The calls are words filed in the database; no cut-off is given here.
Write down one outcome, taken from True for active, False for inactive

Cc1c(OCCCN(C)C)ccc2cc(NC(=O)C/C=C/CC(=O)Nc3cc4ccc(OCCCN(C)C)c(C)c4oc3=O)c(=O)oc12 False
COc1cc2cc(NC(=O)C/C=C/CC(=O)Nc3cc4cc(OC)c(OC5CCN(C)CC5)c(C)c4oc3=O)c(=O)oc2c(C)c1OC1CCN(C)CC1 True
COc1ccc(C(=O)Nc2cc3cc(OC)c(O[C@@H]4OC(C)(C)[C@H](OC)[C@@H](O)[C@H]4O)c(C)c3oc2=O)cc1-c1cc(C(=O)Nc2cc3cc(OC)c(O[C@@H]4OC(C)(C)[C@H](OC)[C@@H](O)[C@H]4O)c(C)c3oc2=O)ccc1OC True
Cc1c(OC2CCN(C)CC2)ccc2cc(NC(=O)CC/C=C/CCC(=O)Nc3cc4ccc(OC5CCN(C)CC5)c(C)c4oc3=O)c(=O)oc12 True

Test call for this compound, please: COc1cc2cc(NC(=O)CC/C=C/CCC(=O)Nc3cc4cc(OC)c(OC5CCN(C)CC5)c(C)c4oc3=O)c(=O)oc2c(C)c1OC1CCN(C)CC1
True

Test call for this compound, please: COc1c(OC2CCN(C)CC2)ccc2cc(NC(=O)CCC/C=C/CCCC(=O)Nc3cc4ccc(OC5CCN(C)CC5)c(OC)c4oc3=O)c(=O)oc12
True

Test call for this compound, please: Cc1c(OC2CCN(C)CC2)ccc2cc(NC(=O)C/C=C/CC(=O)Nc3cc4ccc(OC5CCN(C)CC5)c(C)c4oc3=O)c(=O)oc12
True

Test call for this compound, please: COc1c(OC2CCN(C)CC2)ccc2cc(NC(=O)C/C=C/CC(=O)Nc3cc4ccc(OC5CCN(C)CC5)c(OC)c4oc3=O)c(=O)oc12
True

Test call for this compound, please: Cc1c(OC2CCN(C)CC2)ccc2cc(NC(=O)CCC/C=C/CCCC(=O)Nc3cc4ccc(OC5CCN(C)CC5)c(C)c4oc3=O)c(=O)oc12
False

Test call for this compound, please: COc1ccc(C(=O)Nc2cc3ccc(O[C@@H]4OC(C)(C)[C@H](OC)[C@@H](O)[C@H]4O)c(C)c3oc2=O)cc1-c1cc(C(=O)Nc2cc3ccc(O[C@@H]4OC(C)(C)[C@H](OC)[C@@H](O)[C@H]4O)c(C)c3oc2=O)ccc1OC
True
